Measured IC50 accompanies every entry in the list below.
- target: LK35.2-hPD-L1 cells / PE-labeled PD-1-Ig (Homo sapiens)
- Construct: expressed in transfected cells; host or cells: LK35.2 mouse B cell line
- Sequence (Q9NZQ7 19-290): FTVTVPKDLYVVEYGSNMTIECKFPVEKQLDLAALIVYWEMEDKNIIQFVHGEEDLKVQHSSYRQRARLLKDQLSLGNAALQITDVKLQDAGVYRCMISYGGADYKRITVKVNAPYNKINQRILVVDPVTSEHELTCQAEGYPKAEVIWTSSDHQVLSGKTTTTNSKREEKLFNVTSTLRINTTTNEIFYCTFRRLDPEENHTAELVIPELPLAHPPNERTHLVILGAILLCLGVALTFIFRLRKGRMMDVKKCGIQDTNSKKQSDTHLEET
- assay explanation: LK35.2-hPD-L1 cell binding high-content screening assay
- Type: cell-based
- test context: cluster symbol; cell line of CBA not given (LK35.2-hPD-L1 or 293T-hPD-L1); read-out: CBA IC50 cluster
Positions of bridges follow the written chain, without caps; N, C: chain ends. Non-standard residues stand in square brackets, D forms with d. Residues, ends and D or L forms follow the SMILES beside them. Phe(4-CH2NH2) = NCc1ccc(C[C@H](N)C(=O)O)cc1; Bip = N[C@@H](Cc1ccc(-c2ccccc2)cc1)C(=O)O; Phe(3-Cl) = N[C@@H](Cc1cccc(Cl)c1)C(=O)O; Bta = N[C@@H](Cc1csc2ccccc12)C(=O)O; Hyp = O=C(O)[C@@H]1C[C@@H](O)CN1; NMeF = CN[C@@H](Cc1ccccc1)C(=O)O; NMeNle = CCCC[C@H](NC)C(=O)O; NMeA = CN[C@@H](C)C(=O)O; Orn = NCCC[C@H](N)C(=O)O; Sar = CNCC(=O)O

Examples with their reported IC50 follow.
CCCC[C@H]1C(=O)N(C)[C@@H](CCCC)C(=O)N[C@@H](CCCNC(=N)N)C(=O)N[C@H](C(=O)NCC(N)=O)CSCC(=O)N[C@@H](Cc2ccc(O)cc2)C(=O)N2CCC[C@@H]2C(=O)N[C@@H](CC(N)=O)C(=O)N2CCC[C@H]2C(=O)N[C@@H](Cc2cnc[nH]2)C(=O)N[C@@H](CC(C)C)C(=O)N2CCC[C@H]2C(=O)N[C@@H](Cc2c[nH]c3ccccc23)C(=O)N[C@@H](CO)C(=O)N[C@@H](Cc2c[nH]c3ccccc23)C(=O)N1C [Example 1137] ({CH2CO}-Y[dP]NPHLPWSW[NMeNle][NMeNle]RCG-NH2; thioether N-14) = > 74.3 nM
CCCC[C@H]1C(=O)N(C)CC(=O)N[C@@H](CC(=O)O)C(=O)N[C@@H](C(C)C)C(=O)N(C)[C@@H](Cc2ccccc2)C(=O)N[C@@H](Cc2ccc(O)cc2)C(=O)N(C)CC(=O)N[C@@H](Cc2csc3ccccc23)C(=O)N[C@@H](Cc2ccc(O)cc2)C(=O)N[C@@H](CC(C)C)C(=O)N[C@H](C(=O)NCC(N)=O)CSCC(=O)N[C@@H](Cc2ccccc2)C(=O)N(C)[C@@H](Cc2ccccc2)C(=O)N1C [Example 3062] ({CH2CO}-F[NMeF][NMeNle][Sar]DV[NMeF]Y[Sar][Bta]YLCG-NH2; thioether N-13) = 4.78 to 72.9 nM
CCCC[C@H]1C(=O)N(C)CC(=O)N[C@@H](CC(=O)O)C(=O)N[C@@H](C(C)C)C(=O)N(C)[C@@H](Cc2ccccc2)C(=O)N[C@@H](Cc2ccc(O)cc2)C(=O)N(C)CC(=O)N[C@@H](Cc2csc3ccccc23)C(=O)N[C@@H](Cc2ccc(O)cc2)C(=O)N[C@@H](CC(C)C)C(=O)N[C@H](C(=O)NCC(N)=O)CSCC(=O)N[C@@H](Cc2cccc(Cl)c2)C(=O)N(C)[C@@H](Cc2ccccc2)C(=O)N1C [Example 3114] ({CH2CO}-[Phe(3-Cl)][NMeF][NMeNle][Sar]DV[NMeF]Y[Sar][Bta]YLCG-NH2; thioether N-13) = 4.78 to 72.9 nM
CCCC[C@H]1C(=O)N(C)CC(=O)N[C@@H](CC(=O)O)C(=O)N[C@@H](C(C)C)C(=O)N(C)[C@@H](Cc2ccccc2)C(=O)N[C@@H](Cc2ccc(CN)cc2)C(=O)N(C)CC(=O)N[C@@H](Cc2c[nH]c3ccccc23)C(=O)N[C@@H](Cc2ccc(O)cc2)C(=O)N[C@@H](CC(C)C)C(=O)N[C@H](C(=O)NCC(N)=O)CSCC(=O)N[C@@H](Cc2cccc(Cl)c2)C(=O)N(C)[C@@H](Cc2ccccc2)C(=O)N1C [Example 3122] ({CH2CO}-[Phe(3-Cl)][NMeF][NMeNle][Sar]DV[NMeF][Phe(4-CH2NH2)][Sar]WYLCG-NH2; thioether N-13) = 4.78 to 72.9 nM
CCCC[C@H]1C(=O)N(C)CC(=O)N[C@@H](CC(=O)O)C(=O)N[C@@H](C(C)C)C(=O)N[C@@H](Cc2cccc(Cl)c2)C(=O)N[C@@H](Cc2ccc(O)cc2)C(=O)N(C)CC(=O)N[C@@H](Cc2c[nH]c3ccccc23)C(=O)N[C@@H](Cc2ccc(O)cc2)C(=O)N[C@@H](CC(C)C)C(=O)N[C@H](C(=O)NCC(N)=O)CSCC(=O)N[C@@H](Cc2ccccc2)C(=O)N(C)[C@@H](Cc2ccccc2)C(=O)N1C [Example 3131] ({CH2CO}-F[NMeF][NMeNle][Sar]DV[Phe(3-Cl)]Y[Sar]WYLCG-NH2; thioether N-13) = > 74.3 nM
CCCC[C@H]1C(=O)N(C)[C@@H](CCCC)C(=O)N[C@@H](CCCNC(=N)N)C(=O)N[C@H](C(=O)NCC(N)=O)CSCC(=O)N[C@@H](Cc2ccccc2)C(=O)N(C)[C@@H](C)C(=O)N[C@@H](CC(N)=O)C(=O)N2CCC[C@H]2C(=O)N[C@@H](Cc2cnc[nH]2)C(=O)N[C@@H](CC(C)C)C(=O)N(C)CC(=O)N[C@@H](Cc2ccc(-c3ccccc3)cc2)C(=O)N[C@@H](CO)C(=O)N[C@@H](Cc2c[nH]c3ccccc23)C(=O)N1C [Example 1007] ({CH2CO}-F[NMeA]NPHL[Sar][Bip]SW[NMeNle][NMeNle]RCG-NH2; thioether N-14) = > 74.3 nM
CCCC[C@H]1C(=O)N(C)[C@@H](CCCC)C(=O)N[C@@H](CCCNC(=N)N)C(=O)N[C@H](C(=O)NCC(N)=O)CSCC(=O)N[C@@H](Cc2ccc(O)cc2)C(=O)N(C)[C@@H](C)C(=O)N[C@@H](CC(=O)O)C(=O)N2CCC[C@H]2C(=O)N[C@@H](Cc2cnc[nH]2)C(=O)N[C@@H](CC(C)C)C(=O)N2CCC[C@H]2C(=O)N[C@@H](Cc2c[nH]c3ccccc23)C(=O)N[C@@H](CO)C(=O)N[C@@H](Cc2c[nH]c3ccccc23)C(=O)N1C [Example 1122] ({CH2CO}-Y[NMeA]DPHLPWSW[NMeNle][NMeNle]RCG-NH2; thioether N-14) = 0.158 to 4.71 nM

Query: # get_value(readout='IC50', item= CCCC[C@H]1C(=O)N(C)[C@@H](CCCC)C(=O)N[C@@H](C)C(=O)N[C@H](C(N)=O)CSCC(=O)N[C@@H](Cc2ccc(O)cc2)C(=O)N(C)[C@@H](C)C(=O)N[C@@H](CC(=O)O)C(=O)N2CCC[C@H]2C(=O)N[C@@H](Cc2cnc[nH]2)C(=O)N[C@@H](CCCN)C(=O)N2C[C@H](O)C[C@H]2C(=O)N[C@@H](Cc2c[nH]c3ccccc23)C(=O)N[C@@H](CO)C(=O)N[C@@H](Cc2c[nH]c3ccccc23)C(=O)N1C [Example 1231] ({CH2CO}-Y[NMeA]DPH[Orn][Hyp]WSW[NMeNle][NMeNle]AC-NH2; thioether N-14) )
Response: 0.158 to 4.71 nM
